Item-by-item account of melting point

I am curious: what melting point value has been reported for CCCS(=O)(=O)Nc1ccc(-c2c(C#N)c3ccc(Oc4ncccn4)cc3n2C2CCC2)nc1 [compound 271] ?
206 to 208 °C

Now consider C[C@H](NS(=O)(=O)c1ccc(-c2c(C#N)c3cc(F)ccc3n2-c2ncccn2)nc1)C(F)(F)F [compound 601] and answer again.
201 to 203 °C

Continue with COc1cc2c(C#N)c(-c3ccc(S(=O)(=O)N[C@@H](C)C(F)(F)F)cn3)n(C3CCC3)c2cc1C [compound 757]
222 to 223 °C

Same question for CC(C)Sc1ccc2c(C#N)c(-c3ccc(S(=O)(=O)N4CCCCC4)cn3)n(C3CCC3)c2c1 [compound 22] please.
169 to 171 °C

Further, for CC(C)NS(=O)(=O)c1ccc(-c2c(C#N)c3ccc(OC(F)F)cc3n2C2CCCC2)nc1 [compound 52] ?
157 to 158 °C

Next molecule: CC(C)Oc1ccc2c(C#N)c(-c3ccc(NS(=O)(=O)C4CC4)nn3)n(C3CCC3)c2c1 [compound 274]
175 to 177 °C

Entry C[C@H](NS(=O)(=O)c1ccc(-c2c(C(N)=O)c3c(F)cc(OC(F)F)cc3n2C2CCC2)nc1)C(F)(F)F [compound 825] please
254 to 256 °C

Now consider Cc1ccc2c(C#N)c(-c3ccc(S(=O)(=O)N[C@@H](C)C(F)(F)F)cn3)n(CC3CC3)c2c1 [compound 353] .
165 to 168 °C

Same again, this time with COc1cc2c(C#N)c(-c3ccc(S(=O)(=O)N[C@@H](C)C(F)(F)F)cn3)n(C3CCCC3)c2cc1C [compound 669]
211 to 211.5 °C

Query N#Cc1c(-c2ncc(S(=O)(=O)NC(CF)CF)cn2)n(CC2CC2)c2cc(CC(F)F)ccc12 [compound 621] next
180 to 188 °C

And C[C@H](NS(=O)(=O)c1ccc(-c2c(C#N)c3ccc(C#N)cc3n2CC2CC2)nc1)C1CC1 [compound 350] ?
203 to 208 °C

Item: C[C@H](NS(=O)(=O)c1ccc(-c2c(C#N)c3cc(Cl)ccc3n2C2CCCCC2)nc1)C(F)(F)F [compound 462]
220 to 222 °C

Note, next up: C[C@H](NS(=O)(=O)c1ccc(-c2c(C#N)c3cc(F)ccc3n2-c2ccccn2)nc1)C(F)(F)F [compound 386]
210 to 212 °C

Ok, now CC(C)(CF)NS(=O)(=O)c1ccc(-c2c(C#N)c3ccc(OC(F)F)cc3n2C2CCCC2)nc1 [compound 67]
224 to 229 °C

Next record, please: C[C@H](C1CC1)n1c(-c2ccc(NS(=O)(=O)C(C)(C)C)nc2)c(C(N)=O)c2cc(F)c(OC(F)F)cc21 [compound 1085]
228 to 230 °C

====

observation.type: melting point

Query: melting point; subject: Cc1ccc2c(C#N)c(-c3ncc(S(=O)(=O)NC(CF)CF)cn3)n(CC3CC3)c2c1 [compound 133]
261 to 262 °C

And C[C@@H](NS(=O)(=O)c1ccc(-c2c(C#N)c3cc(F)c(OC(F)F)cc3n2C2CCCC2)nc1)C(F)(F)F [compound 713] ?
197 to 200 °C

Item: CC(C)n1c(-c2ncc(S(=O)(=O)N[C@@H](C)C(F)(F)F)cn2)c(C#N)c2ccc(Cl)cc21 [compound 418]
241 to 248 °C

Same read-out for CCCn1c(-c2ncc(S(=O)(=O)N[C@@H](C)C3CC3)cn2)c(C#N)c2ccc(OC(F)F)cc21 [compound 208] ?
152 to 154 °C

Okay, and CC(C)c1ccc2c(C#N)c(-c3ccc(S(=O)(=O)NC(CF)CF)cn3)n(C3CCCC3)c2c1 [compound 457] ?
163 to 172 °C

Likewise for C[C@@H](NS(=O)(=O)c1ccc(-c2c(C#N)c3cc(F)ccc3n2C2CCCCC2)nc1)C(F)(F)F [compound 261] ?
208 to 210 °C

Try this compound too: CCc1cc2c(cc1F)c(C#N)c(-c1ccc(S(=O)(=O)N[C@@H](C)C(F)(F)F)cn1)n2-c1cnccn1 [compound 929]
225 to 229 °C

Input Cc1cc2c(cc1F)c(C#N)c(-c1ccc(S(=O)(=O)N[C@@H](C)C(F)(F)F)cn1)n2-c1ccncc1 [compound 933]
250 to 255 °C

// repeat for Cc1ccc2c(C#N)c(-c3ccc(S(=O)(=O)N[C@@H](C)C(F)(F)F)cn3)n(C3CCCC3)c2c1 [compound 352] and report
176 to 180 °C

Proceed to C[C@H](NS(=O)(=O)c1cnc(-c2c(C#N)c3cc(F)ccc3n2C2CCCC2)nc1)C(F)(F)F [compound 547]
214 to 218 °C

Input C[C@H](NS(=O)(=O)c1ccc(-c2c(C#N)c3cc(F)c(C4CC4)cc3n2-c2ccccn2)nc1)C(F)(F)F [compound 819]
220 to 223 °C

Queued: Cc1ccc2c(c1)c(C#N)c(-c1ncc(S(=O)(=O)NC(CF)CF)cn1)n2C1CCCCC1 [compound 198]
211 to 215 °C

Now this one: Cc1cc2c(cc1F)c(C#N)c(-c1ccc(S(=O)(=O)N[C@@H](C)C(F)(F)F)cn1)n2-c1ccc(C#N)s1 [compound 1033]
182 to 184.6 °C

Same read-out for C[C@@H](NS(=O)(=O)c1ccc(-c2c(C#N)c3ccc(OC(F)F)cc3n2-c2ccccc2)nc1)C(F)(F)F [compound 554] ?
212 to 213 °C

====

Listing: melting point of selected compounds

Known results for compounds:
compound	melting point
N#Cc1c(-c2ccc(S(=O)(=O)NC3(C(F)(F)F)CC3)cn2)n(-c2ncccn2)c2cc(OC(F)F)ccc12 [compound 690]	170 to 174 °C
C[C@H](NS(=O)(=O)c1ccc(-c2c(C#N)c3ccc(C(F)(F)F)cc3n2-c2ncccn2)nc1)C(F)(F)F [compound 950]	206 to 210 °C
Cc1cc2c(cc1F)c(C#N)c(-c1ccc(S(=O)(=O)N[C@@H](C)C(F)(F)F)cn1)n2-c1ccc(C(F)(F)F)cn1 [compound 740]	253 to 255 °C
C[C@H](NS(=O)(=O)c1ccc(-c2c(C#N)c3cc(C(F)(F)F)ccc3n2-c2cnccn2)nc1)C(F)(F)F [compound 897]	255 to 258 °C
C[C@H](NS(=O)(=O)c1ccc(-c2c(C#N)c3ccc(OC(F)(F)F)cc3n2C2CCCC2)nc1)C(F)(F)F [compound 358]	168 to 170 °C

GET /values?readout=melting point&item= CC(C)NS(=O)(=O)c1ccc(-c2c(C#N)c3ccc(OC4CCC4)cc3n2C2CCC2)cn1 [compound 4]
178 to 180 °C

Do the same for Cc1cc2c(cc1F)c(C(=O)O)c(-c1ccc(S(=O)(=O)NC3(C(F)(F)F)CC3)cn1)n2C1CCCCC1 [compound 835] please
205 to 213 °C

Next up: C[C@H](NS(=O)(=O)c1cnc(-c2c(C#N)c3ccc(F)cc3n2CC2CC2)nc1)C1CC1 [compound 498]
198 to 199 °C

C[C@H](NS(=O)(=O)c1ccc(-c2c(C#N)c3cc(F)c(C4CC4)cc3n2C2CCC2)nc1)C(F)(F)F [compound 630] , same question.
201 to 203 °C

Let us now turn to Cc1cc2c(cc1F)c(C#N)c(-c1ccc(S(=O)(=O)N[C@@H](C)C(F)(F)F)cn1)n2-c1ccsc1Cl [compound 1057]
226.7 to 231.8 °C

====

observation.type: melting point

compound	melting point
C[C@H](NS(=O)(=O)c1ccc(-c2c(C#N)c3cc(Cl)ccc3n2-c2ccccc2)nc1)C(F)(F)F [compound 441]	210 to 212 °C
CC(C)n1c(-c2ncc(S(=O)(=O)NC(CF)CF)cn2)c(C#N)c2ccc(F)cc21 [compound 165]	149 to 150 °C
CC(C)Cn1c(-c2ccc(S(=O)(=O)N[C@@H](C)C(F)(F)F)cn2)c(C#N)c2cc(F)c(OC(F)F)cc21 [compound 937]	130 to 134 °C
CCc1cc2c(cc1F)c(C(N)=O)c(-c1ccc(S(=O)(=O)N[C@@H](C)C(F)(F)F)cn1)n2-c1ccc(C(F)(F)F)cc1 [compound 1022]	253 to 259 °C
CC(NS(=O)(=O)c1ccc(-c2c(C#N)c3ccc(OC(F)F)cc3n2C2CCCC2)nc1)C(F)(F)F (stereo not shown) [compound 53]	189 to 195 °C

Requested read-out: melting point. Entry: C[C@@H](NS(=O)(=O)c1ccc(-c2c(C#N)c3ccc(OC(F)F)cc3n2C2CCC2)nc1)C(F)(F)F [compound 196]
159 to 164 °C

Please answer likewise for CC(C)(C)NS(=O)(=O)c1ccc(-c2c(C#N)c3ccc(OC(F)(F)F)cc3n2C2CCCC2)nc1 [compound 18]
182 to 184 °C

Do the same for C[C@H](NS(=O)(=O)c1ccc(-c2c(C#N)c3ccc(F)cc3n2C2CCC2)nc1)C(F)(F)F [compound 395] please
171 to 172 °C

Param item: Cc1cc2c(cc1F)c(C#N)c(-c1ncc(S(=O)(=O)NC(CF)CF)cn1)n2C1CCC1 [compound 146]
243 to 249 °C

Can you handle CC(C)(C)S(=O)(=O)Nc1ccc(-c2c(C(N)=O)c3cc(F)c(C4CC4)cc3n2-c2ccccc2)cn1 [compound 1100] next?
272 to 274 °C
